Measurement Target: T1, human FcRn extracellular domain (ECD) fused to a transmembrane domain and an intracellular citrine, with … (human)
T1 construct: also called human FcRn overexpressed on CHO cells; FcRn transfected CHO cells
T1 sequence (chain, as listed by the source limits assumed, chain 1 of 2): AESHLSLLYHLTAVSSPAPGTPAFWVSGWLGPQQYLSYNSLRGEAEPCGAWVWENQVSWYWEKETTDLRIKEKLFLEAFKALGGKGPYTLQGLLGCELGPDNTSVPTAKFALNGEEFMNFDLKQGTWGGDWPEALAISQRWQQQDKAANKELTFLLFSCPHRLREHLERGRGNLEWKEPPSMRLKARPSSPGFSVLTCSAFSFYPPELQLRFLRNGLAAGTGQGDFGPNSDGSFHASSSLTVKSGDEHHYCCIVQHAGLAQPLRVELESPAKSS
T1 sequence (b2m, as listed by the source limits assumed, chain 2 of 2): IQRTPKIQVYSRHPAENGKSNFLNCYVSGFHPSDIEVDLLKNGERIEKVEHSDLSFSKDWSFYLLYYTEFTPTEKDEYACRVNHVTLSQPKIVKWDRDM
Assay Notes: flow cytometry, CHO cells transiently expressing human FcRn ECD-TM-citrine and B2M, pH 6, AF647 detection antibody
Measurement Label: EC50 (read off the curve)

Record cx12008 (bispecific antibody, anti-FcRn VHH linked to anti-albumin VHH) single polypeptide, format of FIG. 5(i): EVQLLESGGGEVQPGGSLRLSCAASGSIANVDLMAWHRQAPGKQREPIAVINDAGSTYYAESVKGRFTISRDNAKNTLYLQMNSLRAEDTAVYYCNTATWRGGERYADWGQGTLVTVRPGSGGGSEVQLVESGGGEVQPGGSLRLSCAASGFTFSTSGMVWVRQAPGKGLEWVSTISDDARITVYAESVKGRFTISRDNAKNTVYLQMNSLRAEDTAVYYCATYRAGSRIGSYEDYYRGQGTLVTVRPGG . Reported EC50 (read off the curve): ~0.4 nM
